Molecular target: RNA4
Experiment: Fluorescence binding assay, RNA4
Conditions: RNA4, 1×1 UU loop with AU closing pairs
pKd: −log10 of the molar value.
assay-readout: pKd

- mol: "CN1CCN(c2ccc3nc(-c4ccc5nc(-c6cccc(OCCCC(=O)NCCCN=[N+]=[N-])c6)[nH]c5c4)[nH]c3c2)CC1"
  assay-readout: "pKd"
  recorded-value: 6.43

---

Biological target: herring sperm DNA
Assay: Fluorescence binding assay, herring sperm DNA
pKd: −log10 of the molar value.

- mol: "CN1CCN(c2ccc3nc(-c4ccc5nc(-c6cccc(OCCCC(=O)NCCCN=[N+]=[N-])c6)[nH]c5c4)[nH]c3c2)CC1"
  assayed-target: "herring sperm DNA"
  pKd: 6.96
